system: HIV-1 (strain IIIB); test: microbe, parasite or virus in culture; assay type: cell-based; conditions: Human immunodeficiency virus 1, 120 h; MT4 cells infected with HIV-1 strain IIIB, 5 days; lower line of each compound's entry; read-out: IC50 (MT-4 cells)
pIC50: −log10 of the molar value.
recorded.metric: pIC50

compound O=C(N[C@@H](Cc1ccccc1)[C@H](O)CN(OC1CCCC1)S(=O)(=O)c1ccc2nc[nH]c2c1)O[C@H]1CO[C@H]2OCC[C@H]21 , pIC50 observed: ≥ 7.00

compound COc1ccc(S(=O)(=O)N(C[C@@H](O)[C@H](Cc2ccccc2)NC(=O)OC2COCOC2)OC2CCCC2)cc1 , pIC50 observed: 6.30 to 7.00

compound O=C(N[C@@H](Cc1ccccc1)[C@H](O)CN(OC1CCOCC1)S(=O)(=O)c1ccc2c(c1)OCCO2)O[C@H]1CO[C@H]2OCC[C@H]21 , pIC50 observed: ≥ 7.00

compound COC(=O)Nc1nc2cc(S(=O)(=O)N(C[C@@H](O)[C@H](Cc3ccccc3)NC(=O)[C@H](CC(N)=O)NC(=O)c3ccc4ccccc4n3)OC3CCCC3)ccc2[nH]1 , pIC50 observed: 6.30 to 7.00

compound COc1ccc(S(=O)(=O)N(C[C@@H](O)[C@H](Cc2ccccc2)NC(=O)OCc2ccccc2)OC2CCCC2)cc1 , pIC50 observed: < 6.00

compound CNC(=O)CNC(=O)NCCNc1cccc(S(=O)(=O)N(CC(O)C(Cc2ccccc2)NC(=O)OC2COC3OCCC23)OC2CCCC2)c1 (stereo not drawn) , pIC50 observed: 6.30 to 7.00

compound COc1ccc(S(=O)(=O)N(C[C@@H](O)[C@H](Cc2ccccc2)NC(=O)[C@H](CC(N)=O)NC(=O)c2ccc3ccccc3n2)OC2CCCC2)cc1 , pIC50 observed: ≥ 7.00

compound COc1ccc(S(=O)(=O)N(C[C@@H](O)[C@H](Cc2ccccc2)NC(=O)OC2CO[C@H]3OCC[C@@H]23)OCC(C)C)cc1 (stereo partly drawn) , pIC50 observed: ≥ 7.00

compound O=C(N[C@@H](Cc1ccccc1)[C@H](O)CN(OC1CCCC1)S(=O)(=O)c1cccc(O)c1)O[C@H]1CO[C@H]2OCC[C@H]21 , pIC50 observed: ≥ 7.00

compound COc1ccc(S(=O)(=O)N(C[C@@H](O)[C@H](Cc2ccccc2)NC(=O)O[C@@H]2CO[C@H]3OCC[C@H]32)OC2CCCC2)cc1 , pIC50 observed: 6.00 to 6.30

compound CC(C)(C)OC(=O)N[C@@H](Cc1ccccc1)[C@H](O)CN(OC1CCCC1)S(=O)(=O)c1ccc2[nH]c(NC(=O)N3CCOCC3)nc2c1 , pIC50 observed: 6.00 to 6.30

compound CC(C)ON(C[C@@H](O)[C@H](Cc1ccccc1)NC(=O)O[C@H]1CCOC1)S(=O)(=O)c1ccc2[nH]c(=O)[nH]c2c1 , pIC50 observed: < 6.00

###

system: HIV-1 (strain IIIB); test: microbe, parasite or virus in culture; type: cell-based; conditions: Human immunodeficiency virus 1, 120 h; MT4 cells infected with HIV-1 strain IIIB, 5 days; lower line of each compound's entry; read-out: IC50 (MT-4 cells)
Task for the reader: assign each of the following compounds its reported IC50.

compound CC(C)COC(=O)N(CC(=O)NCCO)c1cccc(S(=O)(=O)N(CC(O)C(Cc2ccccc2)NC(=O)OC2COC3OCCC23)OC2CCCC2)c1 (stereo not shown) , IC50 observed: ≤ 100 nM

compound O=C(NC(Cc1ccccc1)C(O)CN(OC1CCCC1)S(=O)(=O)c1cccc(NCC(=O)N2CCOCC2)c1)OC1COC2OCCC12 (stereo not shown) , IC50 observed: ≤ 100 nM

compound COC(=O)Nc1nc2cc(S(=O)(=O)N(C[C@@H](O)[C@H](Cc3ccccc3)NC(=O)O[C@H]3CCOC3)OC3CCCC3)ccc2[nH]1 , IC50 observed: ≤ 100 nM

compound COc1ccc(S(=O)(=O)N(C[C@@H](O)[C@H](Cc2ccccc2)NC(=O)O[C@H]2CO[C@@H]3OCC[C@@H]32)OC2CCCC2)cc1 , IC50 observed: 500 to 1000 nM

compound CCC(CC)ON(C[C@@H](O)[C@H](Cc1ccccc1)NC(=O)OC(C)(C)C)S(=O)(=O)c1ccc(OC)cc1 , IC50 observed: > 1000 nM

compound O=C(N[C@@H](Cc1ccccc1)[C@H](O)CN(OC1CCCC1)S(=O)(=O)c1ccc2[nH]ncc2c1)O[C@H]1CCOC1 , IC50 observed: 100 to 500 nM

compound CC(C)(C)OC(=O)N[C@@H](Cc1ccccc1)[C@H](O)CN(OC1CCCC1)S(=O)(=O)c1cccc(N)c1 , IC50 observed: > 1000 nM

###

Task for the reader: assign each of the following compounds its reported IC50.
system: HIV-1 (strain IIIB); test: microbe, parasite or virus in culture; format: cell-based; settings: Human immunodeficiency virus 1, 120 h; MT4 cells infected with HIV-1 strain IIIB, 5 days; lower line of each compound's entry; read-out: IC50 (MT-4 cells)

compound COc1ccc(S(=O)(=O)N(C[C@@H](O)[C@H](Cc2ccccc2)NC(=O)OC2CO[C@H]3OCC[C@@H]23)OC2CCCC2)cc1OC (stereo partly shown) , IC50 observed: ≤ 100 nM

compound COc1cccc(S(=O)(=O)N(C[C@@H](O)[C@H](Cc2ccccc2)NC(=O)O[C@H]2CO[C@H]3OCC[C@H]32)OC2CCCC2)c1 , IC50 observed: ≤ 100 nM

compound CC(C)(C)OC(=O)CNc1cccc(S(=O)(=O)N(CC(O)C(Cc2ccccc2)NC(=O)OC2COC3OCCC23)OC2CCCC2)c1 (mixture of isomers) , IC50 observed: 100 to 500 nM

compound COc1ccc(S(=O)(=O)N(C[C@@H](O)[C@H](Cc2ccccc2)NC(=O)OCc2cccnc2)OC2CCCC2)cc1 , IC50 observed: 500 to 1000 nM

###

molecular target: HIV-1 protease (Human immunodeficiency virus type 1 group M subtype B); test: biochemical; conditions: HIV-1 protease; upper line of each compound's entry; read-out: Ki (enzyme)
pKi: −log10 of the molar value.
Task for the reader: assign each of the following molecules its reported pKi.

molecule CN(C)c1cccc(S(=O)(=O)N(CC(O)C(Cc2ccccc2)NC(=O)OC2COC3OCCC23)OC2CCCC2)c1 (stereo not shown) , pKi observed: > 9.00

molecule COc1ccc(S(=O)(=O)N(C[C@@H](O)[C@H](Cc2ccccc2)NC(=O)c2ccccc2C)OC2CCCC2)cc1 , pKi observed: 8.00 to 9.00

molecule CCC(C)ON(C[C@@H](O)[C@H](Cc1ccccc1)NC(=O)OC(C)(C)C)S(=O)(=O)c1ccc(OC)cc1 (stereo partly shown) , pKi observed: 8.00 to 9.00

molecule Nc1n[nH]c2ccc(S(=O)(=O)N(C[C@@H](O)[C@H](Cc3ccccc3)NC(=O)O[C@H]3CO[C@H]4OCC[C@H]43)OC3CCCC3)cc12 , pKi observed: 7.00 to 8.00

molecule NC(=O)c1cccc(S(=O)(=O)N(C[C@@H](O)[C@H](Cc2ccccc2)NC(=O)O[C@H]2CO[C@H]3OCC[C@H]32)OC2CCCC2)c1 , pKi observed: > 9.00

molecule CC(C)(C)OC(=O)N[C@@H](Cc1ccccc1)[C@H](O)CN(OC1CCCC1)S(=O)(=O)c1ccc2nc(N)[nH]c2c1 , pKi observed: > 9.00

molecule NCCNc1cccc(S(=O)(=O)N(CC(O)C(Cc2ccccc2)NC(=O)OC2COC3OCCC23)OC2CCCC2)c1 (stereo not shown) , pKi observed: > 9.00

molecule COc1ccc(S(=O)(=O)N(C[C@@H](O)[C@H](Cc2ccccc2)NC(=O)OC2COCOC2)OC2CCCC2)cc1 , pKi observed: > 9.00

molecule O=C(N[C@@H](Cc1ccccc1)[C@H](O)CN(OC1CCOCC1)S(=O)(=O)c1ccc2c(c1)OCO2)O[C@H]1CO[C@H]2OCC[C@H]21 , pKi observed: > 9.00

molecule Nc1ccc(S(=O)(=O)N(CC(O)C(Cc2ccccc2)NC(=O)OC2COC3OCCC23)OC2CCCC2)cc1 (stereo not shown) , pKi observed: > 9.00

molecule O=C(N[C@@H](Cc1ccccc1)[C@H](O)CC(OC1CCCC1)S(=O)(=O)c1ccc2nccnc2c1)OC1CCOC1 (stereo in doubt) , pKi observed: > 9.00

molecule COc1ccc(S(=O)(=O)N(C[C@@H](O)[C@H](Cc2ccccc2)NC(=O)c2cccc(O)c2C)OC2CCOCC2)cc1 , pKi observed: > 9.00

molecule O=C(N[C@@H](Cc1ccccc1)[C@H](O)CN(OC1CCCC1)S(=O)(=O)c1ccc2[nH]nnc2c1)OC1COCOC1 , pKi observed: > 9.00

molecule O=C(N[C@@H](Cc1ccccc1)[C@H](O)CN(OC1CCCC1)S(=O)(=O)c1ccc2cn[nH]c2c1)O[C@H]1CCOC1 , pKi observed: > 9.00

molecule O=C(N[C@@H](Cc1ccccc1)[C@H](O)CN(OC1CCCC1)S(=O)(=O)c1cccc(O)c1)O[C@H]1CO[C@H]2OCC[C@H]21 , pKi observed: > 9.00

molecule COc1ccc(S(=O)(=O)N(C[C@@H](O)[C@H](Cc2ccccc2)NC(=O)OCc2cccnc2)OC2CCCC2)cc1 , pKi observed: > 9.00
